- System: M. tuberculosis
- EXPERIMENT SUMMARY: Minimum inhibitory concentration in liquid medium (axenic culture)
- Format: cell-based, Mycobacterium tuberculosis
- COND: Mycobacterium tuberculosis, 120 h; extracellular, 5 days, OD590; read-out: Anti-tubercular activity in axenic culture IC50
pIC50: −log10 of the molar value.
I'd appreciate it if you could supply pIC50 values for the items below.

[Q] Entry under review: COC(=O)c1c(NC(NC(=O)c2cccs2)C(=O)c2ccccc2)sc(C(C)=O)c1C (stereo not shown) . Reported pIC50?
[A] < 4.70

[Q] And the next one, O=C(CN1CCC(Cc2ccccc2)CC1)Nc1ccc(Cl)cn1 ?
[A] < 5.00

[Q] And the next one, CCOc1ccc(NC(=S)Nc2ccc(C)c(C#N)c2)cc1 ?
[A] 5.30

[Q] And the next one, Clc1ccc(C2C=C(c3ccc(Br)cc3)Nc3ncnn32)cc1 (stereo not shown) ?
[A] 4.72

[Q] And the next one, O=C(CN(C1=NCCCS1)c1ccccc1)c1ccc(Cl)c(Cl)c1 ?
[A] < 4.70

[Q] And the next one, Cc1cc(C)nc(NC(=N)Nc2ccc(Br)cc2)n1 ?
[A] 5.20

[Q] And the next one, Clc1ccc(Nc2nc(-c3cccs3)cs2)cc1 ?
[A] < 4.70

[Q] And the next one, CCOC(=O)c1sc(NC(=O)Cc2c(F)cccc2Cl)nc1C ?
[A] 4.72

[Q] And the next one, OCc1cn(-c2ccc(Cl)cc2)nc1-c1ccc(Cl)cc1 ?
[A] 4.92

[Q] And the next one, Nc1c(C(=O)N2CCCC2)sc2nc(-c3ccccc3)ccc12 ?
[A] < 4.70

[Q] And the next one, CCOC(=O)c1nnn(-c2nc(N3CCCC3)nc(N3CCCC3)n2)c1-c1ccccc1 ?
[A] < 5.00

[Q] And the next one, Cc1ccc(Nc2nc(-c3ccc(Cl)cc3)cs2)cc1Cl ?
[A] < 4.70

[Q] And the next one, COc1ccc(C(=O)c2sc(NCc3ccccc3)nc2N)cc1 ?
[A] 4.85

[Q] And the next one, OCc1cn(-c2ccc(F)cc2)nc1-c1cc(F)c(Cl)cc1Cl ?
[A] 4.73

[Q] And the next one, Fc1ccc(C2CC(c3ccc(Cl)cc3Cl)n3ncnc3N2)cc1 (stereo not shown) ?
[A] 4.85

[Q] And the next one, O=C(CSc1ccc(Cl)cc1)Nc1ccc(F)c(Cl)c1 ?
[A] < 4.70

[Q] And the next one, COc1ccc(OCC(=O)Nc2sc3c(c2C(=O)NC2CCS(=O)(=O)C2)CCCC3)cc1 (stereo not shown) ?
[A] < 4.70

[Q] And the next one, O=C(CSc1ccccc1)Nc1ccc(Br)cc1 ?
[A] < 4.70

[Q] And the next one, O=C(COc1ccccc1)NC12CC3CC(CC(C3)C1)C2 ?
[A] < 4.70

[Q] And the next one, Cc1sc(NC(=O)c2ccc(OC(C)C)cc2)c(C(N)=O)c1C ?
[A] < 4.70

[Q] And the next one, O=C(Nc1ccc(Cl)c(Cl)c1)c1cccs1 ?
[A] < 4.70

[Q] And the next one, CCCOc1ccc(C(=O)Nc2sc(C)c(C)c2C(N)=O)cc1 ?
[A] < 4.70

[Q] And the next one, COc1ccc(C2Oc3ccc(Cl)cc3C3=C2C(c2ccc(OC)cc2)n2ncnc2N3)cc1 (stereo not shown) ?
[A] < 5.00

[Q] And the next one, O=C(c1c(F)cccc1F)N1CCN(c2cc(N3CCCCCC3)c(F)cc2[N+](=O)[O-])CC1 ?
[A] 5.02

[Q] And the next one, COc1ccc(CNC(=O)c2c(C)nc3ccccn23)cc1 ?
[A] 6.77

[Q] And the next one, CCc1ccccc1NC(=O)c1c(NC(=O)c2cccc(Cl)c2)sc2c1CCC2 ?
[A] < 5.30

[Q] And the next one, CCc1ccc(OCC(=O)Nc2cccc3c2C(=O)OC3)cc1 ?
[A] < 4.70

[Q] And the next one, Cc1ccc(Nc2nc(C(N)=O)c(N)s2)cc1 ?
[A] < 4.70

[Q] And the next one, O=C(COc1ccc(Cl)cc1)Nc1ccc(N2CCCCC2)c(Cl)c1 ?
[A] < 4.70

[Q] And the next one, O=C(c1ccc(Cl)c(Cl)c1)N1CCN(c2ccc([N+](=O)[O-])c3cccnc23)CC1 ?
[A] < 4.70

[Q] And the next one, O=c1c(/C=N/Cc2cccnc2)c(NCc2cccnc2)nc2ccccn12 ?
[A] < 4.70

[Q] And the next one, Cn1nc(C2CC2)cc1C(=O)Nc1ccc(I)cc1 ?
[A] < 4.70

[Q] And the next one, CC(C)c1ccc(OCC(=O)Nc2nccs2)cc1 ?
[A] < 4.70

[Q] And the next one, Clc1c(-c2ccccc2)nc2ccccn12 ?
[A] < 4.70

[Q] And the next one, Cc1ccc(SCC(=O)Nc2ccc(Br)c(C)c2)cc1 ?
[A] < 4.70

[Q] And the next one, Cc1ccc(NC(=O)CCN2CCN(c3ccc(Cl)cc3)CC2)cc1 ?
[A] < 4.70

[Q] And the next one, Cc1c(Cc2ccccc2)sc(NC(=O)c2ccccc2Cl)c1C(N)=O ?
[A] < 4.70

[Q] And the next one, CCOc1ccc(NC(=S)Nc2ccccc2)cc1 ?
[A] 4.96

[Q] And the next one, Cc1ccc(OCC(=O)Nc2ccc(N3CCCCC3)c(Cl)c2)cc1 ?
[A] < 4.70

[Q] And the next one, Brc1c(-c2ccccc2)nc2ccccn12 ?
[A] 5.04

* * *

I'd appreciate it if you could supply selectivity index (TC50/IC50) values for the items below.
- Tested on: RAW264.7 cells
- EXPERIMENT SUMMARY: Macrophage viability in the same high content assay
- COND: macrophage TC50 / intracellular IC50
Just the number, please, no unit after it.

[Q] Any idea what selectivity index (TC50/IC50) came out for Cc1cc(C)nc(NC(=N)Nc2ccc(Br)cc2)n1 on RAW264.7 cells?
[A] 14

[Q] And the next one, O=C(CSc1ccccc1)Nc1ccc(Br)cc1 ?
[A] 40

* * *

- Tested on: HepG2 cells
- EXPERIMENT SUMMARY: HepG2 cytotoxicity (CellTiter-Glo, 72 h)
- Type: cell-based, human
- COND: human, 72 h
Marks after values point to notes of the source that are not given here.
OBSERVATION TYPE: HepG2 cytotoxicity TC50 Galactose

[Q] Entry under review: CCOC(=O)c1sc(NC(=O)Cc2c(F)cccc2Cl)nc1C . Reported HepG2 cytotoxicity TC50 Galactose?
[A] >100 ^e µM

[Q] And the next one, Nc1c(C(=O)N2CCCC2)sc2nc(-c3ccccc3)ccc12 ?
[A] 64 ± 10 ^e µM

[Q] And the next one, Cc1c(Cc2ccccc2)sc(NC(=O)c2ccccc2Cl)c1C(N)=O ?
[A] 42 ± 3.3 ^c µM

[Q] And the next one, O=C(CSc1ccccc1)Nc1ccc(Br)cc1 ?
[A] >100 ^c µM

[Q] And the next one, Cc1sc(NC(=O)c2ccc(OC(C)C)cc2)c(C(N)=O)c1C ?
[A] 41 ± 11 ^c µM

* * *

- System: RAW264.7 cells
- EXPERIMENT SUMMARY: Macrophage viability in the same high content assay
- COND: infected RAW264.7 macrophages; SAR tables 4-8
Marks after values point to notes of the source that are not given here.
I'd appreciate it if you could supply Intracellular RAW TC50 values for the items below.

[Q] Entry under review: O=C(CSc1ccccn1)Nc1ccc(F)c(F)c1 [TPN-0006203] . Reported Intracellular RAW TC50?
[A] >100 ^b µM

[Q] And the next one, COCc1cc(C)nc2sc(C(=O)Nc3cccc(Cl)c3)c(N)c12 [TPN-0073022] ?
[A] 15 ± 9 ^b µM

[Q] And the next one, CCc1ccccc1NC(=O)c1c(NC(=O)c2cccc(Cl)c2)sc2c1CCC2 [TPN-0073585] ?
[A] 9.4 ± 1.9 ^c µM

[Q] And the next one, CCCOc1ccc(C(=O)Nc2sc(C)c(C)c2C(N)=O)cc1 [TPN-0073576] ?
[A] >100 ^d µM

[Q] And the next one, O=C(Nc1ccc(Cl)c(Cl)c1)c1cccs1 [TPN-0073578] ?
[A] 11 ± 2.2 ^c µM

[Q] And the next one, Nc1c(C(=O)N2CCCC2)sc2nc(-c3ccccc3)ccc12 [TPN-0073027] ?
[A] >100 ^g µM

[Q] And the next one, OCc1cn(-c2ccccc2)nc1-c1ccc(Br)cc1 [TPN-0073563] ?
[A] 28 ± 7.0 ^e µM

[Q] And the next one, O=C(COc1ccc(Br)cc1)N1CCN(c2ccccc2F)CC1 [TPN-0006215] ?
[A] 60 ± 27 ^b µM

[Q] And the next one, Cc1sc(NC(=O)c2ccc(OC(C)C)cc2)c(C(N)=O)c1C [TPN-0073559] ?
[A] 50 ± 24 ^d µM

[Q] And the next one, CCN(CC)C(=O)c1sc2nc(-c3ccccc3)ccc2c1N [TPN-0073025] ?
[A] 30 ± 6.6 ^f µM

[Q] And the next one, Cc1c(Cc2ccccc2)sc(NC(=O)c2ccccc2Cl)c1C(N)=O [TPN-0073560] ?
[A] 23 ± 4.7 ^d µM

[Q] And the next one, O=C(Nc1ccc(C(F)(F)F)cc1)Nc1cccc(Cl)c1 [TPN-0073070] ?
[A] 1.8 ± 0.5 ^b µM

[Q] And the next one, O=C(COc1ccc2ccccc2c1)Nc1ccncc1 [TPN-0006212] ?
[A] >100 ^b µM

[Q] And the next one, OCc1cn(-c2ccc(Cl)cc2)nc1-c1ccc(Cl)cc1 [TPN-0073562] ?
[A] 16 ± 11 ^c µM

[Q] And the next one, OCc1cn(-c2ccc(F)cc2)nc1-c1ccc(Cl)cc1 [TPN-0073583] ?
[A] >100 ^d µM

[Q] And the next one, Cc1cc(C)nc(NC(=N)Nc2ccc(Br)cc2)n1 [TPN-0073061] ?
[A] 18 ± 4.3 ^d µM

[Q] And the next one, OCc1cn(-c2ccc(F)cc2)nc1-c1cc(F)c(Cl)cc1Cl [TPN-0073565] ?
[A] >100 ^d µM

[Q] And the next one, Cc1ccc(SCC(=O)Nc2ccc(Br)c(C)c2)cc1 [TPN-0006207] ?
[A] >100 ^b µM

[Q] And the next one, COC(=O)c1c(NC(NC(=O)c2cccs2)C(=O)c2ccccc2)sc(C(C)=O)c1C (centres unmarked) [TPN-0073588] ?
[A] 67 ± 8.5 ^b µM

[Q] And the next one, COCc1cc(C)nc2sc(C(=O)c3ccccc3)c(N)c12 [TPN-0073023] ?
[A] 67 ± 18 ^d µM
